Provenance of the data: ChEMBL document CHEMBL3098116

tested on: MRC5; assay: Antifibrotic activity in human MRC5 cells assessed as inhibition of cell growth after 24 hrs by MTT assay; format: functional, cell-based; details: MRC5, 24 h
quantity: pIC50
Numbers only, as −log10 of the molar value.

Sample records with pIC50:
>>> df
                                   compound  number
0  Cc1ccc(=O)n(-c2ccc(OCCN3CCN(C)CC3)cc2)c1    2.87
1     Cc1ccc(=O)n(-c2ccc(OCCCN3CCCC3)cc2)c1    2.52
2  Cc1ccc(=O)n(-c2ccc(OCCCCCN3CCOCC3)cc2)c1    2.59
3  Cc1ccc(=O)n(-c2ccc(OCCCCN3CCN(C)CC3)cc2)c1    2.63
4  Cc1ccc(=O)n(-c2ccc(OCCCCCN3CCCCC3)cc2)c1    2.44

Recall the reported pIC50 of `CCN(CC)CCCOc1ccc(-n2cc(C)ccc2=O)cc1` when tested on MRC5. 2.68

====

tested on: MRC5; experiment: Antifibrotic activity in human MRC5 cells assessed as inhibition of cell growth after 24 hrs by MTT assay; type: functional, cell-based; details: MRC5, 24 h
quantity: pIC50
Numbers only, as −log10 of the molar value.

// solved cases for pIC50 follow
>>> print(df.to_string())
                                   compound  target_under_test  quantity  number
0    Cc1ccc(=O)n(-c2ccc(OCCCCN3CCCC3)cc2)c1               MRC5     pIC50    2.75
1  Cc1ccc(=O)n(-c2ccc(OCCCN3CCN(C)CC3)cc2)c1               MRC5     pIC50    2.36
2      CCN(CC)CCCCOc1ccc(-n2cc(C)ccc2=O)cc1               MRC5     pIC50    2.67
3      Cc1ccc(=O)n(-c2ccc(OCCN3CCCC3)cc2)c1               MRC5     pIC50    2.42
4       Cc1ccc(=O)n(-c2ccc(OCCCN(C)C)cc2)c1               MRC5     pIC50    2.28

Give pIC50 for each of the items listed below.
1. Cc1ccc(=O)n(-c2ccc(OCCCN3CCCCC3)cc2)c1
2. Cc1ccc(=O)n(-c2ccc(OCCCCCN(C)C)cc2)c1

2.59
2.53

====

biological target: Mitogen-activated protein kinase 14 (Homo sapiens); test: Inhibition of p38alpha (unknown origin) up to 60 mins by ADP-Glo assay
Sequence (Q16539 whole entry): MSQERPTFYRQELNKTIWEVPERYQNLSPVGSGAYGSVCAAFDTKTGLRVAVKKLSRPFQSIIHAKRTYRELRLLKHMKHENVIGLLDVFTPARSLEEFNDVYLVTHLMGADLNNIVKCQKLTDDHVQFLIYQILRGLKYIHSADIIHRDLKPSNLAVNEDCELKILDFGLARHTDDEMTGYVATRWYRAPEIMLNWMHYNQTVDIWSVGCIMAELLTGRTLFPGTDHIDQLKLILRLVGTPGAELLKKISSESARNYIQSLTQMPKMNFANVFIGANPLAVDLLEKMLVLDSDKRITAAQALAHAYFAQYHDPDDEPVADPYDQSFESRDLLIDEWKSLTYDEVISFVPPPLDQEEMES
quantity: IC50 (µM)
Give bare numbers, in µM.

Recorded results for 5 molecules are shown here.
In [3]: df
Out[3]:
                                   compound  measurement_units  number
0   Cc1ccc(=O)n(-c2ccc(OCCCCN3CCCCC3)cc2)c1                 µM    5.21
1    Cc1ccc(=O)n(-c2ccc(OCCCN3CCCCC3)cc2)c1                 µM    4.07
2  Cc1ccc(=O)n(-c2ccc(OCCCCCN3CCCCC3)cc2)c1                 µM    16.2
3                  Cc1ccc(=O)n(-c2ccccc2)c1                 µM     165
4       Cc1ccc(=O)n(-c2ccc(OCCCN(C)C)cc2)c1                 µM    14.2

Now look at this one.
Consider the molecule `Cc1ccc(=O)n(-c2ccc(OCCN3CCCCC3)cc2)c1` and give its recorded IC50. 54.3

====

tested on: MRC5; assay: Antifibrotic activity in human MRC5 cells assessed as inhibition of cell growth after 24 hrs by MTT assay; assay type: functional, cell-based; settings: MRC5, 24 h
Could you please report measured pIC50 for the items listed next?
Give bare numbers, as −log10 of the molar value.

>>> print(df.to_string())
                                 compound  number
0   Cc1ccc(=O)n(-c2ccc(OCCN3CCCCC3)cc2)c1    2.61
1    Cc1ccc(=O)n(-c2ccc(OCCCCN(C)C)cc2)c1    2.74
2  Cc1ccc(=O)n(-c2ccc(OCCCN3CCOCC3)cc2)c1    2.28
3      Cc1ccc(=O)n(-c2ccc(OCCN(C)C)cc2)c1    2.16
4   CCN(CC)CCCCCOc1ccc(-n2cc(C)ccc2=O)cc1    2.36
5                Cc1ccc(=O)n(-c2ccccc2)c1    1.84

Would you mind giving pIC50 for every molecule in the list below?
1. Cc1ccc(=O)n(-c2ccc(OCCN3CCOCC3)cc2)c1
2. Cc1ccc(=O)n(-c2ccc(OCCCCN3CCCCC3)cc2)c1

1. 2.12
2. 2.48

// for each molecule in input: emit pIC50
1. Cc1ccc(=O)n(-c2ccc(OCCCCN3CCOCC3)cc2)c1
2. Cc1ccc(=O)n(-c2ccc(OCCCCCN3CCCC3)cc2)c1

2.52
2.83

Please give pIC50, item by item, for the list that follows.
1. CCN(CC)CCOc1ccc(-n2cc(C)ccc2=O)cc1
2. Cc1ccc(=O)n(-c2ccc(OCCCCCN3CCN(C)CC3)cc2)c1

[2.21, 2.47]
